As shown below, each of these molecules has a reported pIC50 value.
Target: KRAS (G12C)::SOS1 (Homo sapiens (Human), UniProt P01116, C118S/C51S/C80L/G12C)
Sequence (P01116 other isoform, or with tags, fused parts or gaps G12C/C51S/C80L/C118S): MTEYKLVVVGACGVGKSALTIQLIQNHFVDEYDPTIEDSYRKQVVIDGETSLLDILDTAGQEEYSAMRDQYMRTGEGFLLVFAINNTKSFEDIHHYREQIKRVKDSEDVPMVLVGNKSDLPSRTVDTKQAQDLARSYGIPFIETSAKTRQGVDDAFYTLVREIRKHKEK
Assay: KRAS::SOS1 AlphaScreen binding assay, KRAS G12C
Just so you know, pIC50 here is -log10 of the concentration in molar units; reply with that number alone.

Answered cases to consult:
Report pIC50, nothing else, for this molecule: `C[C@H](Oc1cc(N2C[C@H](C)N[C@@H](C)C2)nc(-c2noc3c2CCC[C@@]32CCCc3sc(N)c(C#N)c32)n1)[C@@H]1CCCN1C`
8.70

Provide pIC50 value for the following molecule: `C[C@@H]1CN(c2cc(O[C@@H](C)[C@@H]3C[C@@H](F)CN3C)nc(-c3noc4c3CCC[C@@]43CCCc4sc(N)c(C#N)c43)n2)CC2(CC2)N1`
8.52

// fetch pIC50 given entry `C[C@H](Oc1cc(-c2cnsc2)nc(-c2onc3c2CCC[C@@]32CCCc3sc(N)c(C#N)c32)n1)[C@@H]1CCCN1C`
8.70

Give reported pIC50 value for `C[C@H](Oc1cc(-n2cc3ccn(C4CCOCC4)c(=O)c3n2)nc(-c2noc3c2CCC[C@@]32CCCc3sc(N)c(C#N)c32)n1)[C@@H]1CCCN1C`
8.70

Supply measured pIC50 of `C[C@H](Oc1cc(-n2ccc(C(=O)N(C)C3COC3)n2)nc(-c2onc3c2CCC[C@@]32CCCc3sc(N)c(C#N)c32)n1)[C@@H]1CCCN1C` in your reply.
9.00

For the next question, use this molecule.
Determine its reported pIC50: `COc1c(O[C@@H](C)[C@@H]2CCCN2C)nc(-c2noc3c2CCC[C@@]32CCCc3sc(N)c(C#N)c32)nc1-n1ccc(C(N)=O)n1`
8.70
